- Experiment notes: AUC (0-infinity) in rat plasma at 3 mg/kg,po
- Assay type: ADME, organism-based
- Design: dose 3 mg/kg, route po
- Condition info: plasma
# AUC(0-inf) annotations
Give your result in ng·h/mL as a bare value.

INSERT INTO results (structure, measured) VALUES
  ('CCOC(=O)C1=C(CN2CCN3C(=O)N(CC(C)(C)C(=O)O)C[C@@H]3C2)NC(c2nccs2)=N[C@H]1c1cccc(F)c1C', 70);

// moving on: another record for AUC(0-inf)
Could you share which AUC(0-inf) value was measured for `CCOC(=O)C1=C(CN2CCN3C(=O)N(CC(C)(C)C(=O)O)C[C@@H]3C2)NC(c2nccs2)=N[C@H]1c1cccc(F)c1Cl` ?
26
